- MEASURED TARGET: ER-α (Homo sapiens, UniProt P03372)
- Construct: endogenous in cells; host or cells: MCF-7
- ASSAY METHOD TEXT: ER-α in Cell Western Assay (SP1)
- Format: cell-based
- CONDITION CONTEXT: MCF7; MCF-7 cells, SP1 rabbit monoclonal Ab, 4 or 24 hr post compound addition; read-out: ER In-Cell Western Assay (SP1); Max Response
- Protocol: MCF-7 cells were adjusted to a concentration of 200,000 cells per mL in RPMI containing 10% charcoal-stripped FBS and 20 mM HEPES. […] Integrated intensities in the 800 nm channel and 700 nm channel were measured to determine levels of ER and DNA respectively. Percent ER levels were determined as follows: (Integrated intensity 800 nm sample/integrated intensity 700 nm sample)/(Integrated intensity 800 nm untreated cells/integrated intensity 700 nm untreated cells)×100=% ER levels.
# reported Emax; entries follow

Previously resolved entries follow.
| COMPOUND | ASSAY RESULT |
| --- | --- |
| CC1=C(c2cccc(O)c2)C(c2ccc(OCCn3cccc3)cc2)Oc2ccc(O)cc21 (centres unmarked) [Example 14] | 60 to 85% |
| CC1=C(c2cccc(O)c2)C(c2ccc(OCCN3CCCCC3)cc2)Oc2ccc(O)cc21 (centres unmarked) [Example 9] | 60 to 85% |
| CC1=C(c2cccc(O)c2)C(c2ccc(OCCN3CCC3)cc2)Oc2ccc(O)cc21 (centres unmarked) [Example 38] | 60 to 85% |

Here's the next entry for you.
**Q:** Endpoint output: Emax of CC1=C(c2cccc(O)c2)C(c2ccc(OC[C@H](C)N3CC[C@@H](C)C3)cc2)Oc2ccc(O)cc21 (mixture of isomers) [Example 2] . Value?
**A:** ≥ 85%

====

# reported DC50; entries follow
- MEASURED TARGET: ER-α (Homo sapiens)
- Construct: endogenous in cells; host or cells: MCF-7
- Sequence (P03372 1-595): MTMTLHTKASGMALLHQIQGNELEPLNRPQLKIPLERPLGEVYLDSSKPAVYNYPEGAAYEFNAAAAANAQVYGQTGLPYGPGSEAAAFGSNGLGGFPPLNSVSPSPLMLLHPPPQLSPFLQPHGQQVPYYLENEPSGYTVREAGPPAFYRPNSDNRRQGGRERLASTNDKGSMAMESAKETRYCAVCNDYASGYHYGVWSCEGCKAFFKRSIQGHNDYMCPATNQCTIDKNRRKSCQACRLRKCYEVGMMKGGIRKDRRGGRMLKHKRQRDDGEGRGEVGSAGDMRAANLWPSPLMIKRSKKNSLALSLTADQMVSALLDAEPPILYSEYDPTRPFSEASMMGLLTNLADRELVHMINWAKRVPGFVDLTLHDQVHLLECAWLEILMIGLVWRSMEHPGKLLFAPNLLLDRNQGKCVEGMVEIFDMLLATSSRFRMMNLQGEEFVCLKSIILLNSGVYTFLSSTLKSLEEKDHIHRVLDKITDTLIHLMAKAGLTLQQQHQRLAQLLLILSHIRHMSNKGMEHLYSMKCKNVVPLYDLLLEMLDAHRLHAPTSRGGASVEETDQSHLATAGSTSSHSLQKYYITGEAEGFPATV
- ASSAY METHOD TEXT: ER-α In Cell Western Assay (ER1D5)
- Format: cell-based
- CONDITION CONTEXT: MCF-7 cells, ER1D5 antibody, 4 or 24 hr post compound addition; read-out: ER In-Cell Western Assay (ER1D5); IC50

Previously resolved entries follow.
| COMPOUND | MEASURED TARGET | DC50 |
| --- | --- | --- |
| CC1=C(c2ccc(C)c(O)c2)C(c2ccc(OC[C@H](C)N3CC[C@@H](C)C3)cc2)Oc2ccc(O)cc21 (stereo partly drawn) | ER-α (Homo sapiens) | > 1 nM |
| CC1=C(c2ccccc2)C(c2ccc(OC[C@H](C)N3CC[C@@H](C)C3)cc2)Oc2ccc(O)cc21 (stereo partly drawn) | ER-α (Homo sapiens) | ≤ 1 nM |
| CC1=C(c2cccc(O)c2)C(c2ccc(OC[C@H](C)N3CC[C@@H](C)C3)cc2F)Oc2ccc(O)cc21 (stereo partly drawn) | ER-α (Homo sapiens) | ≤ 1 nM |
| CC1=C(c2cccc(O)c2)C(c2ccc(OC[C@H](C)N3CCC(C)(C)C3)cc2)Oc2ccc(O)cc21 (stereo partly drawn) | ER-α (Homo sapiens) | ≤ 1 nM |
| CC1=C(c2cccc(O)c2)C(c2ccc(OCCN3CCC3)cc2)Oc2ccc(O)cc21 (stereo not drawn) | ER-α (Homo sapiens) | ≤ 1 nM |

**Q:** Endpoint output: DC50 of CC1=C(c2cccc(O)c2)C(c2ccc(OCCN3CC[C@@H](C)C3)cc2)Oc2ccc(O)cc21 (stereo partly drawn) . Value?
**A:** ≤ 1 nM

**Q:** Next compound up: CC1=C(c2cccc(O)c2)C(c2ccc(NCCN3CCCC3)cc2)Oc2ccc(O)cc21 (stereo not drawn)
**A:** > 1 nM

**Q:** Next compound up: CC1=C(c2ccc(F)cc2)C(c2ccc(OCCN3CCCC3)cc2)Oc2ccc(O)cc21 (stereo not drawn)
**A:** > 1 nM

**Q:** Next compound up: CC1=C(c2ccc(O)c(F)c2)C(c2ccc(OC[C@H](C)N3CC[C@@H](C)C3)cc2)Oc2ccc(O)cc21 (stereo partly drawn)
**A:** ≤ 1 nM

**Q:** Next compound up: CC1=C(c2cccc(O)c2)C(c2ccc(OC[C@@H](C)N3CC[C@@H](C)C3)cc2)Oc2ccc(O)cc21 (stereo partly drawn)
**A:** ≤ 1 nM

**Q:** Next compound up: CC1=C(c2cccc(O)c2)C(c2ccc(OC[C@H](C)N3CC[C@@H](C)C3)cc2)Oc2ccc(O)cc21 (mixture of isomers)
**A:** ≤ 1 nM

**Q:** Next compound up: CC1=C(c2cccc(O)c2)C(c2ccc(OCCN3CCC(C)(C)C3)cc2)Oc2ccc(O)cc21 (stereo not drawn)
**A:** ≤ 1 nM

**Q:** Next compound up: CC1=C(c2cccc(O)c2)C(c2ccc(OCCn3cccc3)cc2)Oc2ccc(O)cc21 (stereo not drawn)
**A:** ≤ 1 nM

**Q:** Next compound up: CC1=C(c2cccc(O)c2)C(c2ccc(OC[C@H](C)N3CC[C@@H](C)C3)cc2)Oc2cc(O)ccc21 (stereo partly drawn)
**A:** ≤ 1 nM

**Q:** Next compound up: CC1=C(c2cccc(O)c2)C(c2ccc(OCCN3CCC[C@@H](C)C3)cc2)Oc2ccc(O)cc21 (stereo partly drawn)
**A:** ≤ 1 nM
